Values from patent US5914324A

assay: acute toxicity mouse oral; conditions: in vivo
Reported LD50 values for a set of molecules

// solved cases for LD50 follow
CN(C)CCO/N=C1/CC[C@@]2(C)[C@H](C1)C(=O)C[C@@H]1[C@@H]2CC[C@]2(C)C(=O)CC[C@@H]12
> 1000 mg/kg
CN(C)CCO/N=C\[C@H]1CC[C@@]2(C)[C@H](C1)[C@@H](O)C[C@@H]1[C@@H]2CC[C@]2(C)[C@@H](O)CC[C@@H]12
> 600 mg/kg

(Q) Query (molecule): C[C@]12CC[C@H](/C=N\OCCN)C[C@@H]1[C@@H](O)C[C@@H]1[C@@H]2CC[C@]2(C)[C@@H](O)CC[C@@H]12.O=C(O)C(=O)O ; field requested: LD50
(A) > 600 mg/kg
